The reported measurements were obtained from patent US7396837B2.

# Tested on: LoVo-Dox
# assayMethodText: SRB colorimetric cell growth inhibition assay, LoVo-Dox (MDR)
# Format: cell-based
# particulars: Homo sapiens, LOVO-DOX; total growth inhibition (cytostatic effect); read-out: TGI LOVO-DOX
Each entry below carries its recorded IC (TGI).

- compound: "COc1cc(-c2c3c4cc(OC)c(OC(=O)CCc5ccccc5)cc4oc(=O)c3n3ccc4cc(OC(=O)CCc5ccccc5)c(OC)cc4c23)ccc1OC(=O)CCc1ccccc1 [Compound 8]"
  IC (TGI): "11.2 µM"
- compound: "COc1cc(-c2c3n(c4c(=O)oc5cc(OC(=O)[C@@H](N)C(C)C)c(OC)cc5c24)CCc2c-3cc(OC)c(OC)c2OC(=O)[C@@H](N)C(C)C)ccc1OC(=O)[C@@H](N)C(C)C [Compound 128]"
  IC (TGI): "1.49 µM"
- compound: "COc1cc(-c2c3c4cc(OC)c(OC(=O)[C@@H](N)Cc5ccccc5)cc4oc(=O)c3n3ccc4cc(OC(=O)[C@@H](N)Cc5ccccc5)c(OC)cc4c23)ccc1OC(=O)[C@@H](N)Cc1ccccc1 [Compound 204]"
  IC (TGI): "6.34 µM"

* * *

# System: SK-BR-3
# assayMethodText: SRB colorimetric cell growth inhibition assay, SK-BR-3
# Type: cell-based
# particulars: SK-BR-3; LC=cell killing (cytotoxic effect); read-out: LC50 SK-BR-3

- molecularString: "COc1cc(-c2c3n(c4c(=O)oc5cc(OC(C)=O)c(OC)cc5c24)CCc2cc(OC)c(OC(C)=O)cc2-3)ccc1OC(C)=O"
  CC50, µM: 15.9

* * *

# Tested on: SK-BR-3
# assayMethodText: SRB colorimetric cell growth inhibition assay, SK-BR-3
# Type: cell-based
# particulars: Homo sapiens, SK-BR-3, read-out: LC50 SK-BR-3, SK-BR-3; LC=cell killing (cytotoxic effect)
readoutKind: CC50 (µM)

- molecularString: "COc1cc(-c2c3n(c4c(=O)oc5cc(OC(=O)[C@@H](N)CO)c(OC)cc5c24)CCc2c-3cc(OC)c(OC)c2OC(=O)[C@@H](N)CO)ccc1OC(=O)[C@@H](N)CO"
  quantitativeReadout: 4.11
- molecularString: "COc1cc(-c2c3n(c4c(=O)oc5cc(OC(=O)[C@@H]6CCCN6)c(OC)cc5c24)CCc2cc(OC(=O)[C@@H]4CCCN4)c(OC)cc2-3)ccc1OC(=O)[C@@H]1CCCN1"
  quantitativeReadout: 8.81
- molecularString: "COc1cc(-c2c3c4cc(OC)c(OC(=O)[C@H](N)C(C)C)cc4oc(=O)c3n3ccc4c(OC(=O)[C@H](N)C(C)C)c(OC)c(OC)cc4c23)ccc1OC(=O)[C@H](N)C(C)C"
  quantitativeReadout: 7.9
- molecularString: "COc1cc(-c2c3n(c4c(=O)oc5cc(OC(=O)[C@H](CO)NC(=O)OC(C)(C)C)c(OC)cc5c24)CCc2c-3cc(OC)c(OC)c2OC(=O)[C@H](CO)NC(=O)OC(C)(C)C)ccc1OC(=O)[C@H](CO)NC(=O)OC(C)(C)C"
  quantitativeReadout: 8.58
- molecularString: "COc1cc(-c2c3c4cc(OC)c(OC(=O)[C@@H](N)CCCCNC(=O)OCc5ccccc5)cc4oc(=O)c3n3ccc4c(OC(=O)[C@@H](N)CCCCNC(=O)OCc5ccccc5)c(OC)c(OC)cc4c23)ccc1OC(=O)[C@@H](N)CCCCNC(=O)OCc1ccccc1"
  quantitativeReadout: 7.6

* * *

# System: IGROV-ET
# assayMethodText: SRB colorimetric cell growth inhibition assay, IGROV-ET (ET-743 resistant)
# Format: cell-based
# particulars: IGROV-ET; cell killing (cytotoxic effect); read-out: LC50 IGROV-ET
readoutKind: CC50 (µM)

- compound: "COc1cc2ccn3c(c(-c4ccc(OC(=O)[C@@H](N)Cc5ccccc5)c(OC)c4)c4c5cc(OC)c(OC(=O)[C@@H](N)Cc6ccccc6)cc5oc(=O)c43)c2cc1OC [Compound 13]"
  readoutKind: "CC50"
  quantitativeReadout: 12.4
- compound: "COc1cc(-c2c3c4cc(OC)c(OC(=O)[C@H](C)N)cc4oc(=O)c3n3ccc4c(OC(=O)[C@H](C)N)c(OC)c(OC)cc4c23)ccc1OC(=O)[C@H](C)N [Compound 191]"
  readoutKind: "CC50"
  quantitativeReadout: 11.7
- compound: "COc1cc2ccn3c(c(-c4ccc(OC(=O)[C@@H](N)C(C)C)c(OC)c4)c4c5cc(OC)c(OC(=O)[C@@H](N)C(C)C)cc5oc(=O)c43)c2cc1OC [Compound 14]"
  readoutKind: "CC50"
  quantitativeReadout: 14

* * *

# Tested on: A-549
# assayMethodText: SRB colorimetric cell growth inhibition assay, A-549
# Format: cell-based
# particulars: Homo sapiens, A549, A-549; TGI=total growth inhibition (cytostatic effect); read-out: TGI A-549
readoutKind: IC (TGI) (µM)

- molecularString: "COc1cc(-c2c3c4cc(OC)c(OC(=O)[C@@H](N)CCCCNC(=O)OCc5ccccc5)cc4oc(=O)c3n3ccc4c(OC(=O)[C@@H](N)CCCCNC(=O)OCc5ccccc5)c(OC)c(OC)cc4c23)ccc1OC(=O)[C@@H](N)CCCCNC(=O)OCc1ccccc1"
  readoutKind: "IC (TGI)"
  quantitativeReadout: 7.6
- molecularString: "COc1cc2c(cc1OC)-c1c(-c3ccc(OS(C)(=O)=O)c(OC)c3)c3c4cc(OC)c(OS(C)(=O)=O)cc4oc(=O)c3n1CC2"
  readoutKind: "IC (TGI)"
  quantitativeReadout: 14.9
- molecularString: "COc1cc(-c2c3c4cc(OC)c(OC(=O)[C@@H](NC(=O)OC(C)(C)C)C(C)C)cc4oc(=O)c3n3ccc4cc(OC(=O)[C@@H](NC(=O)OC(C)(C)C)C(C)C)c(OC)cc4c23)ccc1OC(=O)[C@@H](NC(=O)OC(C)(C)C)C(C)C"
  readoutKind: "IC (TGI)"
  quantitativeReadout: 4.78

* * *

# Tested on: IGROV-ET
# assayMethodText: SRB colorimetric cell growth inhibition assay, IGROV-ET (ET-743 resistant)
# Format: cell-based
# particulars: Homo sapiens, IGROV-ET; total growth inhibition (cytostatic effect); read-out: TGI IGROV-ET

- molecularString: "COc1cc(-c2c3n(c4c(=O)oc5cc(OC(=O)[C@H](N)C(C)C)c(OC)cc5c24)CCc2cc(OC(=O)[C@H](N)C(C)C)c(OC)cc2-3)ccc1OC(=O)[C@H](N)C(C)C"
  studyTarget: "IGROV-ET"
  valueUnit: "nM"
  IC (TGI): 3010
- molecularString: "CC[C@H](C)[C@H](NC(=O)OC(C)(C)C)C(=O)Oc1ccc(-c2c3c4cc(OC)c(OC(=O)[C@@H](NC(=O)OC(C)(C)C)[C@@H](C)CC)cc4oc(=O)c3n3ccc4cc(OC(=O)[C@@H](NC(=O)OC(C)(C)C)[C@@H](C)CC)c(OC)cc4c23)cc1OC"
  studyTarget: "IGROV-ET"
  valueUnit: "nM"
  IC (TGI): 8780
- molecularString: "COc1cc(-c2c3c4cc(OC)c(OC(=O)CCC5CCCCC5)cc4oc(=O)c3n3ccc4cc(OC(=O)CCC5CCCCC5)c(OC)cc4c23)ccc1OC(=O)CCC1CCCCC1"
  studyTarget: "IGROV-ET"
  valueUnit: "nM"
  IC (TGI): 10900
- molecularString: "C=CCOC(=O)N[C@@H](C)C(=O)Oc1ccc(-c2c3c4cc(OC)c(OC(=O)[C@H](C)NC(=O)OCC=C)cc4oc(=O)c3n3ccc4cc(OC(=O)[C@H](C)NC(=O)OCC=C)c(OC)cc4c23)cc1OC"
  studyTarget: "IGROV-ET"
  valueUnit: "nM"
  IC (TGI): 366
- molecularString: "CC[C@H](C)[C@H](N)C(=O)Oc1ccc(-c2c3c4cc(OC)c(OC(=O)[C@@H](N)[C@@H](C)CC)cc4oc(=O)c3n3ccc4cc(OC(=O)[C@@H](N)[C@@H](C)CC)c(OC)cc4c23)cc1OC"
  studyTarget: "IGROV-ET"
  valueUnit: "nM"
  IC (TGI): 70.1
- molecularString: "COc1cc2ccn3c(c(-c4ccc(OC(=O)[C@@H](N)Cc5ccccc5)c(OC)c4)c4c5cc(OC)c(OC(=O)[C@@H](N)Cc6ccccc6)cc5oc(=O)c43)c2cc1OC"
  studyTarget: "IGROV-ET"
  valueUnit: "nM"
  IC (TGI): 5140
- molecularString: "COc1cc(-c2c3c4cc(OC)c(OC(=O)[C@@H](N)C(C)C)cc4oc(=O)c3n3ccc4c(OC(=O)[C@@H](N)C(C)C)c(OC)c(OC)cc4c23)ccc1OC(=O)[C@@H](N)C(C)C"
  studyTarget: "IGROV-ET"
  valueUnit: "nM"
  IC (TGI): 855
- molecularString: "COc1cc(-c2c3c4cc(OC)c(OC(=O)CCc5ccccc5)cc4oc(=O)c3n3ccc4cc(OC(=O)CCc5ccccc5)c(OC)cc4c23)ccc1OC(=O)CCc1ccccc1"
  studyTarget: "IGROV-ET"
  valueUnit: "nM"
  IC (TGI): 11200
- molecularString: "COc1cc2ccn3c(c(-c4ccc(OC(=O)[C@@H](N)C(C)C)c(OC)c4)c4c5cc(OC)c(OC(=O)[C@@H](N)C(C)C)cc5oc(=O)c43)c2cc1OC"
  studyTarget: "IGROV-ET"
  valueUnit: "nM"
  IC (TGI): 2540
- molecularString: "COc1cc(-c2c3c4cc(OC)c(OC(C)C)cc4oc(=O)c3n3ccc4c(OC(C)C)c(OC)c(OC)cc4c23)ccc1OC(C)C"
  studyTarget: "IGROV-ET"
  valueUnit: "nM"
  IC (TGI): 15200
